B1: HDV Ribozyme (parent)
chain: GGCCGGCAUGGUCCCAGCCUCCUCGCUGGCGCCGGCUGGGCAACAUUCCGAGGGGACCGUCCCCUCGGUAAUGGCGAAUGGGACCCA

Variants of: B1
Experimental protocol: self-cleavage, relative activity (ratio to wild type); higher = more cleavage; co-transcriptional
Decision: self-cleavage compared against 0.7; not below it gives 1, below it gives -1.

Q. Could you please find out whether C49G C85U has self-cleavage that meets 0.7 or exceeds it?
A. 1

Q. Could you tell me if the measured self-cleavage of C14U A51U reaches 0.7 or more?
A. 1

Q. Is it the case that C57G G59C has self-cleavage reaching or exceeding 0.7?
A. 1

Q. Hi team, for G2A G17A , is the recorded self-cleavage at or above 0.7?
A. -1

Q. Please check the record G6C C32U and state if its self-cleavage is at or above 0.7.
A. -1

Q. Entry U27C C36U : is its self-cleavage no less than 0.7?
A. -1

Q. Does the reported self-cleavage for C21A A51C fall at or above the 0.7 mark?
A. -1

Q. Exam item: decide whether the reported self-cleavage for G82U C86A is at least 0.7.
A. 1

Q. Quick check: does C14U G74C have self-cleavage greater than or equal to 0.7?
A. -1

Q. Dear colleague, could you confirm whether C33G A77U has self-cleavage at or above 0.7?
A. -1

Q. Record U27A C58A ; criterion: self-cleavage no lower than 0.7. Met?
A. 1

Q. Does self-cleavage meet or surpass 0.7 for U47A G73C ?
A. -1

Q. Evaluate C4G U27C : self-cleavage at minimum 0.7?
A. -1

Q. API: above_or_equal(metric=self-cleavage, cutoff=0.7) for item C19U G53C
A. -1

Q. Form field: self-cleavage at least 0.7? Entry: C61U
A. 1

Q. Could you tell me if the measured self-cleavage of C7A G28U reaches 0.7 or more?
A. -1

Q. Please indicate if the recorded self-cleavage for U12C A45G meets or exceeds 0.7.
A. -1

Q. Given the entry C44G G53U , answer whether its self-cleavage meets or surpasses 0.7.
A. 1

Q. Could you verify whether the entry C36U U47C shows self-cleavage of no less than 0.7?
A. -1

Q. Check this variant for self-cleavage at or above 0.7: G38A G52U
A. -1

Q. Assess whether reported self-cleavage for G28C G54A sits at 0.7 or higher.
A. -1
